Below, each of the molecules is paired with its reported melting point value.

| Smiles Structure | melting point |
| --- | --- |
| Cl.Nc1ccc(-c2cc(F)cc3cccnc23)c(N)n1 | > 250 °C |
| Cl.Nc1ccc(-c2c(F)ccc3cccnc23)c(CCCC(F)(F)F)n1 | 70 to 130 °C |
| CCc1nc(N)ccc1-c1c(F)cc(F)c2cc(F)cnc12.Cl | 110 to 120 °C |
| CCc1nc(N)ccc1-c1cccc2cc3c(nc12)CCN(C)C3.Cl.Cl | 197 to 211 °C |
| CCc1nc(N)ccc1-c1c(F)ccc2ccc(=O)[nH]c12.Cl | 172 to 208 °C |
| CCc1nc(N)ccc1-c1nccc2cccnc12.Cl | 160 to 200 °C |
| Cl.Nc1ccc(-c2c(F)cc(F)c3cc(F)cnc23)c(N)n1 | > 250 °C |
| Cl.Nc1ccc(-c2cccc3sccc23)c(N)n1 | 100 to 120 °C |
| CCc1nc(N)ccc1-c1ccc(F)c2cccnc12.Cl | 120 to 140 °C |
| CCc1nc(N)ccc1-c1ccccc1-c1ccc(O)nc1.Cl | 95 to 120 °C |
| CCc1nc(N)ccc1-c1cccc2cc(C)cnc12.Cl | > 250 °C |
| CCc1nc(N)ccc1-c1cc(F)cc2cccnc12.Cl | 50 to 56 °C |
| CCc1nc(N)ccc1-c1cccc2c1NC(=O)CC2.Cl | 233 to 237 °C |
| Cl.Cn1ncc2cccc(-c3ccc(N)nc3N)c21 | 198 to 204 °C |
| CCc1nc(N)ccc1-c1cccc2ccnn12.Cl | 234 to 243 °C |
| Cl.Nc1ccc(-c2cccc3c2sc2ccccc23)c(N)n1 | 165 to 170 °C |
| CCc1nc(N)ccc1-c1c(F)cc(F)c2cccnc12.Cl | 126 to 136 °C |
| Cc1nc(N)ccc1-c1cccc2cccnc12.Cl | > 250 °C |
| CCc1nc(N)ccc1-c1c(F)ccc2c1OCCCC2.Cl | 47 to 65 °C |
| CC(C)(C)OC(=O)n1cc(-c2ccc(N)nc2N)c2ccccc21 | 150 to 154 °C |
| CCc1nc(N)ccc1-c1cccc2c1NC(=O)C2.Cl | > 250 °C |

Entry source: patent US20220298135A1
